# TARGET_DESC: recombinant human cGAS (Homo sapiens (Human), UniProt Q8N884)
# Sequence (Q8N884 whole entry): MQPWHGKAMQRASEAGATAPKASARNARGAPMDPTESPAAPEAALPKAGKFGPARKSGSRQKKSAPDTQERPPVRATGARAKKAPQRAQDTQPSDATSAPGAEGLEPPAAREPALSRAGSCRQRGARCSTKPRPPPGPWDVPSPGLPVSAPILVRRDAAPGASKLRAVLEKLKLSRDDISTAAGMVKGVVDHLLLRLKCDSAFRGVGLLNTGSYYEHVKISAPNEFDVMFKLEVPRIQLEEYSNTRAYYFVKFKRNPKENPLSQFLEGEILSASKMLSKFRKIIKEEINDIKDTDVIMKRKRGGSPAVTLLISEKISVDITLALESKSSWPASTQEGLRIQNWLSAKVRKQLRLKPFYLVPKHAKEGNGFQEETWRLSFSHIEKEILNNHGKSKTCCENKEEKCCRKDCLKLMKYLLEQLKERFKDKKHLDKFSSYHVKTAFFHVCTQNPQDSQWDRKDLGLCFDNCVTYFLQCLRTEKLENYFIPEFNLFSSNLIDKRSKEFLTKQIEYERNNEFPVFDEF
# ASSAY_INFO: In vitro inhibition assay of cGAS activity (cGAMP production, RapidFire mass spectrometry)
# Type: biochemical
# CONDITION_INFO: 10 nM recombinant human cGAS, 60 nM 75-bp dsDNA, ATP, GTP, room temperature 3 hours, read-out: IC50 (μM), In vitro inhibition assay for Compounds 95-348
REPORTED_ENDPOINT: IC50 (µM)
Numbers only, in µM.

The following molecules each have a reported value; give each one's IC50.
1. O=C(Cn1ccnc1)N1CCn2c(c(-c3cn[nH]c3)c3ccc(Cl)c(Cl)c32)C1
2. N#CCOc1cc(Cl)c(Cl)c2c1c(-c1cn[nH]c1)c1n2CCN(C(=O)CN2CCOCC2)C1
3. Sc1nnc(-c2[nH]c3c(Cl)c(Cl)ccc3c2-c2cn[nH]c2)[nH]1

Result:
[0.0468, 0.0303, 0.019]

Test item N#CCOc1cc(Cl)c(Cl)c2c1c(-c1cn[nH]c1)c1n2CCN(C(=O)CCn2cncn2)C1 ; recombinant human cGAS (Homo sapiens (Human), UniProt Q8N884); reported IC50 was 0.0365

---

# TARGET_DESC: recombinant human cGAS (Homo sapiens (Human))
# ASSAY_INFO: In vitro inhibition assay of cGAS activity (cGAMP production, RapidFire mass spectrometry)
# Format: biochemical
# CONDITION_INFO: 10 nM recombinant human cGAS, 60 nM 75-bp dsDNA, ATP, GTP, room temperature 3 hours, read-out: IC50 (μM), In vitro inhibition assay for Compounds 95-348
Please respond with reported IC50 for every item in the list.
Answers are plain numbers, in µM.

molecule="Clc1ccc2c(-c3cn[nH]c3)c(-c3nnc(C4CC4)o3)[nH]c2c1Cl [Example 160]" target_desc="recombinant human cGAS (Homo sapiens (Human))" number=0.0787
molecule="O=C(CO)Nc1cc(Cl)c(Cl)c2c1c(-c1cn[nH]c1)c1n2CCN(C(=O)CO)C1 [Example 145]" target_desc="recombinant human cGAS (Homo sapiens (Human))" number=0.0804
molecule="CN1C(=O)CN(CC(=O)N2CCn3c(c(-c4cn[nH]c4)c4ccc(Cl)c(Cl)c43)C2)C1=O [Example 327]" target_desc="recombinant human cGAS (Homo sapiens (Human))" number=0.0635

For the 6 molecules below, give their IC50 values.
1. O=C(CO)Nc1cc(Cl)c(Cl)c2[nH]nc(-c3cn[nH]c3)c12 [Example 336]
2. CC(=O)NCc1c(-c2cn[nH]c2)c2ccc(Cl)c(Cl)c2n1C [Example 134]
3. O=C(NCc1[nH]c2c(Cl)c(Cl)ccc2c1-c1cn[nH]c1)C1(O)COC1 [Example 223]
4. COc1cc2c(-c3cn[nH]c3)cn(-c3cn(CCO)nn3)c2cc1Cl [Example 152]
5. CC(=O)NC1CCc2c(-c3cn[nH]c3)c3c(OCC#N)cc(Cl)c(Cl)c3n2C1 (centres unmarked) [Example 102]
6. O=C(Nc1cc(Cl)c(Cl)c2c1c(-c1cn[nH]c1)c1n2CCN(C(=O)CO)C1)C(F)F [Example 272]

Result:
0.0385
0.0282
0.0812
0.0142
0.0166
0.0202

For every record below, what is its IC50?
1. CCNc1cc(Cl)c(Cl)c2c1c(-c1cn[nH]c1)c1n2CCN(C(=O)CO)C1 [Example 148]
2. Clc1ccc2c(-c3cn[nH]c3)c(-c3nnco3)[nH]c2c1Cl [Example 156]
3. O=C(Cc1cnccn1)N1CCn2c(c(-c3cn[nH]c3)c3ccc(Cl)c(Cl)c32)C1 [Example 267]
4. N#CCC(=O)Nc1cc(Cl)c(Cl)c2[nH]cc(-c3cn[nH]c3)c12 [Example 176]
5. Clc1cc(OC2COC2)c2c(-c3cn[nH]c3)c[nH]c2c1Cl [Example 206]
6. OCC(O)CNc1cc(Cl)c(Cl)c2[nH]cc(-c3cn[nH]c3)c12 (single isomer, unassigned) [Example 261]
7. N#CCOc1cc(Cl)c(Cl)c2c1c(-c1cn[nH]c1)c1n2CCN(C(=O)[C@@H]2COCCO2)C1 [Example 285]

Result:
[0.052, 0.0405, 0.0399, 0.0864, 0.0421, 0.0452, 0.0126]

Consider CC(=O)Nc1cc(Cl)c(Cl)c2[nH]c(CNC(=O)CO)c(-c3cn[nH]c3)c12 [Example 222] . Its measured IC50 is 0.0927

The measured values listed here are drawn from patent US20230391786A1.
